# target: 5-hydroxytryptamine receptor 2B (Homo sapiens, UniProt P41595)
# Sequence (P41595 whole entry): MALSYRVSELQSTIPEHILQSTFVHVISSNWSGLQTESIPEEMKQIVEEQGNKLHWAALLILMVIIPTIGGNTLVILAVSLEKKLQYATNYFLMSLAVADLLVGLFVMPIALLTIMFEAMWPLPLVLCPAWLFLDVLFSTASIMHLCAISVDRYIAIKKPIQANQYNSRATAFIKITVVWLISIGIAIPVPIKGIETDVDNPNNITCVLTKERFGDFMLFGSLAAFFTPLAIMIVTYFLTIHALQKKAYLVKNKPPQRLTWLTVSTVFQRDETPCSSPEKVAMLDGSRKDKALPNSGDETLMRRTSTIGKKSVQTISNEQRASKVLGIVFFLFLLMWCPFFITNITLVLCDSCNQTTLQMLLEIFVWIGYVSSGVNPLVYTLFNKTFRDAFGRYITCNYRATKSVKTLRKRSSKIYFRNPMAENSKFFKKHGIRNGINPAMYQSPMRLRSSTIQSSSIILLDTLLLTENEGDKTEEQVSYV
# protocolDetails: GPCRScan assay: inhibition of 5-HT2B
# Set-up: radioligand conc. used [nm] 1.0 – 2.0, parental cells stable HEK
# conditionInfo: read-out: Ki
endpointLabel: Ki

Missing value: Ki, 5-hydroxytryptamine receptor 2B (Homo sapiens, UniProt P41595), entry C[C@H](c1ccnc(Nc2nc3ccc(-c4cc(N(C)C)ncn4)cc3[nH]2)c1)N1CCN(C(=O)CC(F)(F)F)CC1 . Fill in?
1.31 µM

---

# target: Sigma intracellular receptor 2 (Homo sapiens, UniProt Q5BJF2)
# Sequence (Q5BJF2 whole entry): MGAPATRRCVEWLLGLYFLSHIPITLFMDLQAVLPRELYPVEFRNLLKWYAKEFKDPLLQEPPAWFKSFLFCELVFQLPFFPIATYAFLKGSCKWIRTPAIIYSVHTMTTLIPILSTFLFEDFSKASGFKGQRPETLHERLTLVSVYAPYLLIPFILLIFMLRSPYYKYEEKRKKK
# protocolDetails: GPCRScan assay: inhibition of Sigma 2
# Design: radioligand conc. used [nm] 5.0, parental cells HEKT
# conditionInfo: read-out: Ki
Can you tell me pKi for the items I'm about to list?
pKi is defined as minus the log10 of a concentration measured in mol/L.

Hello, I am looking for reported pKi with Sigma intracellular receptor 2 (Homo sapiens, UniProt Q5BJF2) for C[C@H](c1ccnc(Nc2nc3ccc(-c4cc(N(C)C)ncn4)cc3[nH]2)c1)N1CCN(C(=O)CC(F)(F)F)CC1 [BAY-985] . Could you help?
5.94

Please give the result for CN(C)c1ncnc(-c2ccc3nc(Nc4cc(CN5CCN(C(=O)CC(F)(F)F)CC5)ccn4)[nH]c3c2)c1Cl [BAY-440] too.
5.66
